The reported measurements were obtained from paper PMC8901753.

experiment: Single-GUV dye (HPTS) leakage assay, membranolytic activity; details: 10 μM peptide, continuous flow, after 7 h, PBS pH 7.4, mean ± std. dev., 2 independent repeats
# maps each entry to its vesicle survival rate

>  <Polymer Sequence>
RLLRLKLRL [bienK9, ultrashort amphipathic helix peptide with binary encoding by arginine and leucine, lysine at the mutation position]

>  <vesicle survival rate (%)>
47

$$$$
>  <Polymer Sequence>
RLLRLALRL [bienA9, ultrashort amphipathic helix peptide with binary encoding by arginine and leucine, alanine at the mutation position]

>  <vesicle survival rate (%)>
19.9

$$$$
>  <Polymer Sequence>
RLLRLKLRLL [bienK10, ultrashort amphipathic helix peptide with binary encoding by arginine and leucine, lysine at the mutation position]

>  <vesicle survival rate (%)>
48

$$$$
>  <Polymer Sequence>
RLLRLKLRLLR [bienK11, ultrashort amphipathic helix peptide with binary encoding by arginine and leucine, lysine at the mutation position]

>  <vesicle survival rate (%)>
78

$$$$

====

system: E. coli BW25113 cells; assay: Mother-machine microfluidics-microscopy single-cell assay; format: cell-based, Escherichia coli; settings: 10 μM peptide, 3 h time point, susceptible cells; 20 cells from 2 repeats (bienA9: 5 cells, 1 experiment)
Recorded Metric: coefficient of variation (CV) in the cell lengths (%)

>  <Polymer Sequence>
RLLRLALRL [bienA9, ultrashort amphipathic helix peptide with binary encoding by arginine and leucine, alanine at the mutation position]

>  <Result Units>
%

>  <Result Value>
17

$$$$
>  <Polymer Sequence>
RLLRLKLRLLR [bienK11, ultrashort amphipathic helix peptide with binary encoding by arginine and leucine, lysine at the mutation position]

>  <Result Units>
%

>  <Result Value>
48

$$$$
>  <Polymer Sequence>
RLLRLKLRLL [bienK10, ultrashort amphipathic helix peptide with binary encoding by arginine and leucine, lysine at the mutation position]

>  <Result Units>
%

>  <Result Value>
47

$$$$
>  <Polymer Sequence>
RLLRLALRLLR [bienA11, ultrashort amphipathic helix peptide with binary encoding by arginine and leucine, alanine at the mutation position]

>  <Result Units>
%

>  <Result Value>
16

$$$$
>  <Polymer Sequence>
RLLRLKLRL [bienK9, ultrashort amphipathic helix peptide with binary encoding by arginine and leucine, lysine at the mutation position]

>  <Result Units>
%

>  <Result Value>
44

$$$$
>  <Polymer Sequence>
RLLRLALRLL [bienA10, ultrashort amphipathic helix peptide with binary encoding by arginine and leucine, alanine at the mutation position]

>  <Result Units>
%

>  <Result Value>
16

$$$$
